test system: V-C8 + BRCA2 (BRCA2-proficient hamster cells); experiment: normalised cell viability (fraction of plate median); higher = more viable cells (less toxic); settings: treatment time: 6 days; 5 µM
Counter-ions that a name gives are not always drawn. Whole data set: some 1,300 compounds, median “normalised cell viability” near 1, cut for the lowest 2% near 0.15. The list comes from a sample in which the lowest values are over-represented; it also holds close analogues and randomly drawn compounds.
Item-by-item account of normalised cell viability
// response body must contain only the number

Observe how each entry below is paired with its result.
1) Cn1c(=O)c2c(ncn2C)n(C)c1=O    0.996
2) CN1CCC(OC(c2ccccc2)c2ccccc2)CC1 [Diphenylpyraline hydrochloride]    1.04
3) Nc1ccc(S(=O)(=O)Nc2ncccn2)cc1    1.02
4) C[C@H]1O[C@H](O[C@H]2[C@H](O)[C@@H](O)[C@@H](O[C@H]3[C@H](O)[C@@H](O)C(O)O[C@@H]3CO)O[C@@H]2CO)[C@H](O)[C@@H](O)[C@@H]1N[C@H]1C=C(CO)[C@@H](O)[C@H](O)[C@H]1O (stereo partly drawn)    1.03
5) COC(=O)C1=C(C)NC(C)=C(C(=O)OC(C)C)C1c1cccc2nonc12 (stereo not drawn)    0.926

Entry `CC[C@H](c1ccc(O)cc1)[C@@H](CC)c1ccc(O)cc1` — recorded normalised cell viability = 0.944

Notebook: NCCc1c[nH]cn1 [Histamine dihydrochloride] , normalised cell viability read as 0.991

Record summary for Cc1ccc(O)c([C@H](CCN(C(C)C)C(C)C)c2ccccc2)c1 [Tolterodine tartrate] : reported normalised cell viability = 0.965

----------
Each entry below carries its recorded normalised cell viability.
system: V-C8 + BRCA2 (BRCA2-proficient hamster cells); assay: normalised cell viability (fraction of plate median); higher = more viable cells (less toxic); conditions: treatment time: 6 days; 5 µM
Counter-ions that a name gives are not always drawn. Over roughly 1,300 compounds, “normalised cell viability” has its median near 1; the lowest 2% begin near 0.15. What follows is part of a selection rich in the lowest values, with near analogues and random picks from the rest.
Note: the reply should be a number with no unit written.

Use the examples below as a reference point.
1. CCOCCn1c(N2CCCN(C)CC2)nc2ccccc21    1.06
2. C[N+](C)(C)CCOC(N)=O    1.01
3. N[C@H]1CONC1=O [(S)-(-)-Cycloserine]    0.917
4. CC1CC(OC(=O)c2ccccc2O)CC(C)(C)C1 (centres undefined) [Homosalate]    1.02
5. Cc1nnc(SCC2=C(C(=O)O)N3C(=O)[C@@H](NC(=O)Cn4cnnn4)[C@H]3SC2)s1 [Cefazolin sodium salt]    1.01

Recorded normalised cell viability for `COc1nc(C)nc(Cl)c1NC1=NCCN1` on V-C8 + BRCA2 (BRCA2-proficient hamster cells) was 0.996

So the reported normalised cell viability for CCC1NC(=O)c2cc(S(N)(=O)=O)c(Cl)cc2N1 (centres undefined) , on V-C8 + BRCA2 (BRCA2-proficient hamster cells), turned out to be 0.989

V-C8 + BRCA2 (BRCA2-proficient hamster cells) assay, compound CO[C@@]1(NC(=O)CSCC#N)C(=O)N2C(C(=O)O)=C(CSc3nnnn3C)CS[C@@H]21 [Cefmetazole sodium salt] , recorded normalised cell viability = 0.98

Simply: `O=C1c2c(O)cccc2Cc2cccc(O)c21` , V-C8 + BRCA2 (BRCA2-proficient hamster cells), normalised cell viability = 0.978

Observed normalised cell viability on V-C8 + BRCA2 (BRCA2-proficient hamster cells), entry CC(C)NCC(O)c1ccc(O)c(O)c1 (single isomer, unassigned; (+)) [(+)-Isoproterenol (+)-bitartrate salt] , equals 1.05

Observed normalised cell viability, V-C8 + BRCA2 (BRCA2-proficient hamster cells), CCN(CC)C(=O)C1(c2ccccc2)CC1CN (centres undefined) [Milnacipran hydrochloride] : 0.937

For the compound `COc1ccc(C(=O)CC(=O)c2ccc(C(C)(C)C)cc2)cc1` , the measured normalised cell viability on V-C8 + BRCA2 (BRCA2-proficient hamster cells) was 1.04

normalised cell viability of O=C1c2cccc(O)c2C(=O)c2c(O)cccc21 [1,8-Dihydroxyanthraquinone] , assay on V-C8 + BRCA2 (BRCA2-proficient hamster cells), is 0.914

----------
system: V-C8 + BRCA2 (BRCA2-proficient hamster cells); assay: normalised cell viability (fraction of plate median); higher = more viable cells (less toxic); details: treatment time: 3 days; 5 µM
Where a name gives a salt, the structure may show the parent alone. In all, about 1,300 compounds were measured (“normalised cell viability”: median about 1, lowest 2% from about 0.15 on). This excerpt belongs to a sample that is enriched for the lowest values.
QUANTITY_MEASURED: normalised cell viability

Known results for compounds:
1. CCCN[C@H]1CCc2nc(N)sc2C1 [Pramipexole]    0.962
2. CC(=O)OC[C@H]1O[C@@H]([S-])[C@H](OC(C)=O)[C@@H](OC(C)=O)[C@@H]1OC(C)=O.CCP(CC)CC.[Au+] [Auranofin]    0.126
3. Clc1ccc(CO/N=C(\Cn2ccnc2)c2ccc(Cl)cc2Cl)c(Cl)c1 [Oxiconazole Nitrate]    1.07

# normalised cell viability (compound: Nc1ccn([C@@H]2CS[C@H](CO)O2)c(=O)n1 [Lamivudine] ) is 0.335

Kindly note the recorded normalised cell viability for CO/N=C(\C(=O)N[C@@H]1C(=O)N2C(C(=O)OC(C)OC(C)=O)=C(COC(N)=O)CS[C@H]12)c1ccco1 (stereo partly drawn) [Cefuroxime axetil] , which is 1.01

Entry under test: CC(C)NC(=N)NC(=N)Nc1ccc(Cl)cc1 [Proguanil hydrochloride] . Its normalised cell viability was 0.211

The value of normalised cell viability measured for the compound CCN(CC)CCOc1ccc(C(=C(Cl)c2ccccc2)c2ccccc2)cc1 [Clomiphene citrate (Z,E)] turned out to be 0.124

compound CC/C(=C(\c1ccccc1)c1ccc(OCCN(C)C)cc1)c1ccccc1 [Tamoxifen citrate] , normalised cell viability observed: 0.878

----------
test system: V-C8 + BRCA2 (BRCA2-proficient hamster cells); assay: normalised cell viability (fraction of plate median); higher = more viable cells (less toxic); conditions: treatment time: 3 days; 5 µM
Counter-ions that a name gives are not always drawn. Whole data set: some 1,300 compounds, median “normalised cell viability” near 1, cut for the lowest 2% near 0.15. The sample holds the lowest values, similar compounds and a random draw of the others, so the mix is not that of the screen.
Listing of recorded normalised cell viability by entry.
Returns: the value as a bare number; no unit string appended.

Before answering, review these 3 worked examples.
1) O=C(O)CCc1nc(-c2ccccc2)c(-c2ccccc2)o1    1.06
2) CNC(=O)c1c(I)c(C(=O)NCC(=O)Nc2c(I)c(C(=O)O)c(I)c(C(=O)NCCO)c2I)c(I)c(N(C)C(C)=O)c1I    1
3) COC(=O)Nc1nc2cc(C(=O)c3ccccc3)ccc2[nH]1    0.163

I looked up O=C1NCC2(CCN(CCc3ccccc3)CC2)O1 [Fenspiride hydrochloride] and its normalised cell viability for V-C8 + BRCA2 (BRCA2-proficient hamster cells) was 1.03

----------
system: V-C8 + BRCA2 (BRCA2-proficient hamster cells); assay: normalised cell viability (fraction of plate median); higher = more viable cells (less toxic); settings: treatment time: 6 days; 5 µM
Counter-ions that a name gives are not always drawn. Whole data set: some 1,300 compounds, median “normalised cell viability” near 1, cut for the lowest 2% near 0.15. For the sample, the lowest values were picked, then their nearest neighbours and some compounds at random.
Please assign F whenever normalised cell viability is at or above 0.9, and T whenever it is below.

# input is_below(normalised cell viability, 0.9) for COC(=O)Nc1nc2cc(C(=O)c3cccs3)ccc2[nH]1 [Nocodazole] ?
# output T

# input State whether 0.9 exceeds normalised cell viability recorded for C[C@@H]1CCC[C@H](C)N1NC(=O)c1ccc(Cl)c(S(N)(=O)=O)c1 [Clopamide] .
# output F

# input Strictly below 0.9 in normalised cell viability? COC(=O)Nc1nc2cc(C(=O)c3ccccc3)ccc2[nH]1 [Mebendazole]
# output T

# input normalised cell viability strictly < 0.9 for this compound? O=C(Nc1cccc2c(=O)cc(-c3nnn[nH]3)oc12)c1ccc(OCCCCc2ccccc2)cc1 [Pranlukast]
# output F

# input Hi there! Is normalised cell viability for CCOC(=O)[C@H](CCc1ccccc1)N[C@H]1CCc2ccccc2N(CC(=O)O)C1=O [Benazepril HCl] below 0.9, do you know?
# output F

# input Lab note: confirm whether the reported normalised cell viability for this compound is below 0.9, equality not counting. compound: O=C1[C@H](CC[C@H](O)c2ccc(F)cc2)[C@@H](c2ccc(O)cc2)N1c1ccc(F)cc1 [Ezetimibe]
# output F

----------
system: V-C8 + BRCA2 (BRCA2-proficient hamster cells); experiment: normalised cell viability (fraction of plate median); higher = more viable cells (less toxic); settings: treatment time: 3 days; 5 µM
Counter-ions that a name gives are not always drawn. In all, about 1,300 compounds were measured (“normalised cell viability”: median about 1, lowest 2% from about 0.15 on). Only a selection was taken, and the lowest values are over-represented in it overall.
Documented normalised cell viability across a set of compounds
Write no unit; give the number alone.

Guide cases for normalised cell viability, answers given:
1) CN[C@@H]1[C@H](O[C@H]2[C@H](O[C@H]3[C@H](O)[C@@H](O)[C@H](NC(=N)N)[C@@H](O)[C@@H]3NC(=N)N)O[C@@H](C)[C@]2(O)CO)O[C@@H](CO)[C@H](O)[C@H]1O [Dihydrostreptomycin sulfate]    0.911
2) NCCc1c[nH]cn1 [Histamine dihydrochloride]    0.994
3) C=C1/C(=C\C=C2/CCC[C@]3(C)[C@@H]([C@H](C)CCCC(C)C)CC[C@@H]23)C[C@@H](O)C[C@@H]1O [Alfacalcidol]    0.751
4) CCC(=O)OCC(=O)[C@@]1(OC(=O)CC)[C@@H](C)C[C@H]2[C@@H]3CCC4=CC(=O)C=C[C@]4(C)[C@@]3(Cl)[C@@H](O)C[C@@]21C [Beclomethasone dipropionate]    1
5) CN1[C@@H]2CC[C@H]1C[C@@H](OC(=O)c1c[nH]c3ccccc13)C2 [Tropisetron HCl]    1.05

Quick note, normalised cell viability for CS(=O)(=O)c1ccc([C@@H](O)[C@@H](CO)NC(=O)C(Cl)Cl)cc1 [Thiamphenicol] landed at 0.97
